Data provenance is patent US20240141042A1.

Target: T1, NKp46 mutant 19 (human, UniProt O76036 22-304)
T1 construct: Expressed in transfected HEK293T cells
T1 chain: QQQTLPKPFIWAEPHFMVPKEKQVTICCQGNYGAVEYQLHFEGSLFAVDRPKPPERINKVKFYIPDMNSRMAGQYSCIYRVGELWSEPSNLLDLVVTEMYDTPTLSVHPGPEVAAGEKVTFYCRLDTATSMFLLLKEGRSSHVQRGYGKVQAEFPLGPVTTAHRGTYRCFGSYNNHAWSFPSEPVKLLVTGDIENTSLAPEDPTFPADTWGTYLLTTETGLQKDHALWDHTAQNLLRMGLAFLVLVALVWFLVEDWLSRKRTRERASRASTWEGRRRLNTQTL
Assay: flow cytometry on HEK293T cells transfected with NKp46 mutant 19 (I135A, S136A), antibody titrated 0.001-1 ug/ml
ENDPOINT_LABEL: binding result

BINDER: NKp46-2 (antibody, human IgG1, V domains shown, also called parental human IgG1 chimeric antibody NKp46-2) VH: EVQLQESGPGLVKPSQSLSLTCTVTGYSITSDYAWNWIRQFPGNKLEWMGYITYSGSTSYNPSLESRISITRDTSTNQFFLQLNSVTTEDTATYYCARGGYYGSSWGVFAYWGQGTLVTVSA VL: DIQMTQSPASLSASVGETVTITCRVSENIYSYLAWYQQKQGKSPQLLVYNAKTLAEGVPSRFSGSGSGTQFSLKINSLQPEDFGSYYCQHHYGTPWTFGGGTKLEIK
OBS_VALUE: binds
//
BINDER: NKp46-1 (antibody, V domains shown, also called Antibody NKp46-1; parental human IgG1 chimeric antibody NKp46-1) VH: QVQLQQSGPELVKPGASVKMSCKASGYTFTDYVINWGKQRSGQGLEWIGEIYPGSGTNYYNEKFKAKATLTADKSSNIAYMQLSSLTSEDSAVYFCARRGRYGLYAMDYWGQGTSVTVSS VL: DIQMTQTTSSLSASLGDRVTISCRASQDISNYLNWYQQKPDGTVKLLIYYTSRLHSGVPSRFSGSGSGTDYSLTINNLEQEDIATYFCQQGNTRPWTFGGGTKLEIK
OBS_VALUE: binds
//
BINDER: NKp46-9 (antibody, V domains shown, not in the list MOLECULES as an antibody; also called antibody NKp46-9; monoclonal antibody NKp46-9) VH: DVQLQESGPGLVKPSQSLSLTCTVTGYSITSDYAWNWIRQFPGNKLEWMGYITYSGSTNYNPSLKSRISITRDTSKNQFFLQLNSVTTEDTATYYCARCWDYALYAMDCWGQGTSVTVSS VL: DIQMTQSPASLSASVGETVTITCRTSENIYSYLAWCQQKQGKSPQLLVYNAKTLAEGVPSRFSGSGSGTHFSLKINSLQPEDFGIYYCQHHYDTPLTFGAGTKLELK
OBS_VALUE: binds
